Molecular target: OsWOX13 (Oryza sativa, UniProt Q5QMM3 1-267)
Sequence: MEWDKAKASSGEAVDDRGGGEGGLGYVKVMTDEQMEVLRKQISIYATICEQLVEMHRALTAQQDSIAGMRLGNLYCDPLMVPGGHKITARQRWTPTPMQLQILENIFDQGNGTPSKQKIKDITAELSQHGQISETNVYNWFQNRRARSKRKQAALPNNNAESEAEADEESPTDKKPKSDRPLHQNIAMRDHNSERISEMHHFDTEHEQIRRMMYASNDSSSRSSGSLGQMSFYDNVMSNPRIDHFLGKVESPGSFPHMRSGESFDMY
Assay: protein-binding microarray (RPBM); PBS, 2% BSA, 51.3 ng/ul salmon testes DNA, 50 uM zinc acetate, 200 nM TF, 25 C, 1 h; high values mean tight binding
Details: protein: recombinant; tags: N-terminal polyhistidine and DsRed monomer fusion (pET32a); label: CyDye5-dUTP incorporated in the synthesized complementary strand; 3' TTTTT single-stranded linker to array surface; dsDNA, one strand shown
Whole data set: some 35,000 sequences, median “fluorescence intensity (a.u.)” near 10,000, cut for the highest 2% near 52,000. Shown is part of a subset that was picked to be rich in the highest values.
Assay Readout: binding signal

Some sequences with recorded binding signal:
Input line: # input sequence: ACTGATTGACGTTTCTCATAACTAAAATATAGGTATTGTGCGGAGTCACCTAGTGCAG ; wanted: its binding signal
Output line: 60900 fluorescence intensity (a.u.)

Input line: # input sequence: GATGGACCAATTTGATTGTTGTTGGATTCTACGATGCATGCGGAGTCACCTAGTGCAG ; wanted: its binding signal
Output line: 9950 fluorescence intensity (a.u.)

Lab note: next sequence to report on.
Input line: # input sequence: ATGATGATTGACTTATGTGAATATATTGTCTATATATGCACGGAGTCACCTAGTGCAG ; wanted: its binding signal
Output line: 60300 fluorescence intensity (a.u.)

====

Target: OsWOX13 (Oryza sativa, UniProt Q5QMM3 1-267)
Sequence: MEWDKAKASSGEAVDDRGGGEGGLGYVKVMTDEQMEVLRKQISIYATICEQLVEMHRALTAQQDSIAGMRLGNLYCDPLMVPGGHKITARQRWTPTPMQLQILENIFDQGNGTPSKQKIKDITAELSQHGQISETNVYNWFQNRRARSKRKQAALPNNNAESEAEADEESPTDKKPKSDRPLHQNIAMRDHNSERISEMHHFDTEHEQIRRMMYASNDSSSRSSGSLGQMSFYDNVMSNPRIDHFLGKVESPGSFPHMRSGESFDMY
Assay: protein-binding microarray (RPBM); PBS, 2% BSA, 51.3 ng/ul salmon testes DNA, 50 uM zinc acetate, 200 nM TF, 25 C, 1 h; high values mean tight binding
Settings: protein: recombinant; tags: N-terminal polyhistidine and DsRed monomer fusion (pET32a); label: CyDye5-dUTP incorporated in the synthesized complementary strand; 3' TTTTT single-stranded linker to array surface; dsDNA, one strand shown
Over roughly 35,000 sequences, “fluorescence intensity (a.u.)” has its median near 10,000; the highest 2% begin near 52,000. Only a selection was taken, and the highest values are over-represented in it overall.
Assay Readout: binding signal

Some sequences with recorded binding signal:
Input line: # input sequence: TAATTAATTAATTGATTGATTGATTTGAAACTGATTAATTCGGAGTCACCTAGTGCAG ; wanted: its binding signal
Output line: 56200 fluorescence intensity (a.u.)

Input line: # input sequence: ATGAAATGATTTGATTGAAATATTATGAAATGATTTGAGACGGAGTCACCTAGTGCAG ; wanted: its binding signal
Output line: 39500 fluorescence intensity (a.u.)

Input line: # input sequence: TATTAATTACAGATTGACAAAACACAAGATTTGCCTGTATCGGAGTCACCTAGTGCAG ; wanted: its binding signal
Output line: 61800 fluorescence intensity (a.u.)

Input line: # input sequence: ATTGATTTGATGAAACTAATTTAATATTATAAATATTATTCGGAGTCACCTAGTGCAG ; wanted: its binding signal
Output line: 26000 fluorescence intensity (a.u.)

Further cases:
Input line: # input sequence: AACCAATCACGTCGCAGATAAGGCCTGACAGGTGTGCCCCCGGAGTCACCTAGTGCAG ; wanted: its binding signal
Output line: 32700 fluorescence intensity (a.u.)

====

Molecular target: OsWOX13 (Oryza sativa, UniProt Q5QMM3 1-267)
Sequence: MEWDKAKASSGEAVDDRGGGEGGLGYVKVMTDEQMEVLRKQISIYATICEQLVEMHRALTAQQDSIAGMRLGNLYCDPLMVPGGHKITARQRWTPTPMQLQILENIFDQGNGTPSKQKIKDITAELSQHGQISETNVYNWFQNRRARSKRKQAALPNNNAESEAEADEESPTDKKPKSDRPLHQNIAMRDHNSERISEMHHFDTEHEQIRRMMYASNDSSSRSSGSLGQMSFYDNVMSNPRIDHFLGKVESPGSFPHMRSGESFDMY
Experiment: protein-binding microarray (RPBM); PBS, 2% BSA, 51.3 ng/ul salmon testes DNA, 50 uM zinc acetate, 200 nM TF, 25 C, 1 h; high values mean tight binding
Settings: protein: recombinant; tags: N-terminal polyhistidine and DsRed monomer fusion (pET32a); label: CyDye5-dUTP incorporated in the synthesized complementary strand; 3' TTTTT single-stranded linker to array surface; dsDNA, one strand shown
In all, about 35,000 sequences were measured (“fluorescence intensity (a.u.)”: median about 10,000, highest 2% from about 52,000 on). For the sample, the highest values were picked, then their nearest neighbours and some sequences at random.
Assay Readout: binding signal

Input line: # input sequence: AGCTAATTAAGCTAGTGAGAGCTAGTGGAGGTACATGGCTCGGAGTCACCTAGTGCAG ; wanted: its binding signal
Output line: 11600 fluorescence intensity (a.u.)

Input line: # input sequence: GTGGCTGTGATTGTGTGATTGTGTACCTGTTTGTAGTGAACGGAGTCACCTAGTGCAG ; wanted: its binding signal
Output line: 20500 fluorescence intensity (a.u.)

Input line: # input sequence: CACCAGTGATCTTATAATTGTAAATTTTGATCCAAGATTCCGGAGTCACCTAGTGCAG ; wanted: its binding signal
Output line: 3800 fluorescence intensity (a.u.)

Further cases:
Input line: # input sequence: TGTAATCTATCAAGAATCCATTACTGAGACACAAATGCATCGGAGTCACCTAGTGCAG ; wanted: its binding signal
Output line: 4280 fluorescence intensity (a.u.)

Input line: # input sequence: GTTTTATTCTGATTAAATTAAATGCCACAGGGACATTGTCCGGAGTCACCTAGTGCAG ; wanted: its binding signal
Output line: 9600 fluorescence intensity (a.u.)

Input line: # input sequence: AATACACATTGACAGATGAGTTAACGCCCGTGACAGGCTGCGGAGTCACCTAGTGCAG ; wanted: its binding signal
Output line: 20500 fluorescence intensity (a.u.)

Input line: # input sequence: TCAAACTTACATAATTTACATGCCATGTTATCCAATATGCCGGAGTCACCTAGTGCAG ; wanted: its binding signal
Output line: 11100 fluorescence intensity (a.u.)

Input line: # input sequence: ATAATTATTTGTTTTCAGTCATGTATCTTCATCTTATACACGGAGTCACCTAGTGCAG ; wanted: its binding signal
Output line: 6340 fluorescence intensity (a.u.)

Input line: # input sequence: GTCTTGTTCATAATAGACTGGACTCTTTGATTCCTGTGTGCGGAGTCACCTAGTGCAG ; wanted: its binding signal
Output line: 3330 fluorescence intensity (a.u.)

====

Target: OsWOX13 (Oryza sativa, UniProt Q5QMM3 1-267)
Sequence: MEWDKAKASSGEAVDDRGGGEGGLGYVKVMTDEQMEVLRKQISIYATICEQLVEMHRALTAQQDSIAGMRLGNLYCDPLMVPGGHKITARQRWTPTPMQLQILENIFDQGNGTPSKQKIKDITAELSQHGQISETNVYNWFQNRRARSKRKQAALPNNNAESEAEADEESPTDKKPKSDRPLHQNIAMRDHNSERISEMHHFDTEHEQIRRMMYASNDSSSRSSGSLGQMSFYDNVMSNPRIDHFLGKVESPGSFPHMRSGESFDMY
Assay: protein-binding microarray (RPBM); PBS, 2% BSA, 51.3 ng/ul salmon testes DNA, 50 uM zinc acetate, 200 nM TF, 25 C, 1 h; high values mean tight binding
Details: protein: recombinant; tags: N-terminal polyhistidine and DsRed monomer fusion (pET32a); label: CyDye5-dUTP incorporated in the synthesized complementary strand; 3' TTTTT single-stranded linker to array surface; dsDNA, one strand shown
In all, about 35,000 sequences were measured (“fluorescence intensity (a.u.)”: median about 10,000, highest 2% from about 52,000 on). The list comes from a sample in which the highest values are over-represented; it also holds close analogues and randomly drawn sequences.
Assay Readout: binding signal

Input line: # input sequence: CCCTAGACAGATCAGCTTTGGTGTCTTGGTGGTTGTTGTCCGGAGTCACCTAGTGCAG ; wanted: its binding signal
Output line: 5440 fluorescence intensity (a.u.)

Input line: # input sequence: GCTAATTTATACAATAGTTGCTTACTATAGAATTAATGCACGGAGTCACCTAGTGCAG ; wanted: its binding signal
Output line: 27200 fluorescence intensity (a.u.)

Input line: # input sequence: GCCTGCATTCATTTCCCTAATCAATCGGCTCGGATAATGTCGGAGTCACCTAGTGCAG ; wanted: its binding signal
Output line: 4450 fluorescence intensity (a.u.)

Input line: # input sequence: TACTATGATTTTCTTTGAATTCAGGTCCTTGCGATTCCAGCGGAGTCACCTAGTGCAG ; wanted: its binding signal
Output line: 3510 fluorescence intensity (a.u.)

Input line: # input sequence: AATTAATCAGCCAATCACAATCTCTCAAACTACACGGACTCGGAGTCACCTAGTGCAG ; wanted: its binding signal
Output line: 35500 fluorescence intensity (a.u.)

Input line: # input sequence: ATGATTTGCATGATTGCTTGCTTGCTTGCTGCTATGGCCACGGAGTCACCTAGTGCAG ; wanted: its binding signal
Output line: 62700 fluorescence intensity (a.u.)

Input line: # input sequence: TTGATTAGATGCGCTGTGTGGCTTCTTGTTCAGTGACAGGCGGAGTCACCTAGTGCAG ; wanted: its binding signal
Output line: 32400 fluorescence intensity (a.u.)
